# growth inhibition annotations
# Experiment description: NCI Yeast Anticancer Drug Screen. Data for the cln2 rad14 strain (AID 165);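 also: 0% = growth equal to vehicle treated cultures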
# Assay context: S. cerevisiae cln2 rad14 strain, at 50.0 µM, stronger effect = higher value
This is part of a sample that, as a whole, favours compounds with a hit. Of some 79,000 tested, about 15% had one in any assay.
Dear colleague, please return just the value in %, with no unit written.

>>> reported("CCCCCCCCCCCCCCCCSS(=O)(=O)O")
-1.15
>>> reported("CCN(CC)CCC1(C(N)=O)Cc2ccccc2N(CC)c2ccccc21 (centres undefined)")
-2.6
>>> reported("Cn1c(COc2ccc(/C=N\\NC(=O)c3ccc(C(=O)N/N=C/c4ccc(OCc5c[n+]6ccccc6n5C)cc4)cc3)cc2)c[n+]2ccccc12")
26.7
>>> reported("CN(C)c1ccc(/C=C(\\NC(=O)c2ccccc2)C(=O)Nc2ccccc2C(=O)NCc2ccccc2)cc1")
12.3
>>> reported("O=C(O)Cc1cccc(C(=O)O)c1")
8.4

Fill blank: measured growth inhibition of the compound Nc1nc(N)[n+]([O-])c(N)c1NCO is ____.
-50.8

I would be grateful if you could share the reported growth inhibition for Cc1cc2c(SCc3ccccc3Cl)nc(N)nc2nc1C .
-35

I am curious: what growth inhibition value has been reported for CCSC(OC(C)=O)C(Nc1ccc([N+](=O)[O-])cc1[N+](=O)[O-])C(OC(C)=O)C(OC(C)=O)C(COC(C)=O)OC(C)=O (centres undefined) ?
17.2

Value lookup for growth inhibition; key = COc1ccc2c3c([nH]c2c1[N+](=O)[O-])C(C)N(C)CC3 (centres undefined)
25.3

Which growth inhibition is listed for COc1cccc(CC(=O)O)c1OC ?
1.8

Endpoint output: growth inhibition of COC1OC(CO)C(O)C2OCCOCCOC3C(OC)OC(CO)C(O)C3OCCOCCOC12 (centres undefined) . Value?
-7.7

Could you tell me which growth inhibition is on file for COc1ccc(CCC(=O)O)c(C(CC(=O)O)C(=O)O)c1OS(=O)(=O)c1ccc(C)cc1 (centres undefined) ?
6.05

Fill blank: measured growth inhibition of the compound COC(=O)/C(C#N)=C\n1c(=S)[nH]c2ccccc21 is ____.
17.4

Dear colleague, I am looking for the recorded growth inhibition of the following compound: CC(=O)NC(CCCNC(=O)N(CCCl)N=O)C(=O)NCc1ccccc1 (centres undefined)
23.3

# growth inhibition lookup, item CC(=O)OC1CCC2(C)C(CCC3C2CCC2(C)C(C(C)=O)CCC32)C1 (centres undefined)
-11.9

So what's the measured growth inhibition for this one? O=C(CCC(=O)NO)NO
-17.7

growth inhibition lookup needed for CN(C=O)/C=C/c1cc(O)ccc1O , thanks.
-4.1

* * *

# Experiment description: NCI Yeast Anticancer Drug Screen. Data for the rad50 strain (AID 155);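 also: 0% = growth of vehicle-only cultures of the same strain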
# Assay context: S. cerevisiae rad50 strain growth inhibition; at 50.0 µM; stronger effect = higher value
The panel holds about 79,000 compounds, 15% with a hit somewhere; the sample as a whole holds those more often.
// Not fulfilled strictly below 10% in growth inhibition; Fulfilled otherwise

>>> label("CC1(C)OC2OC(C3CC3)C(OCc3ccccc3)C2O1 (centres undefined)")
"Not fulfilled"
>>> label("COc1cc(CC(=O)c2ccc3c(c2)OCO3)cc(OC)c1OC")
"Not fulfilled"
>>> label("c1cc2[nH]snc2c2cncc12")
"Fulfilled"
>>> label("O=C(C1OC1c1cccc([N+](=O)[O-])c1)C12CC3CC(CC(C3)C1)C2 (centres undefined)")
"Fulfilled"
>>> label("N#CC(N)c1ccc(OCCCCCCCCCCOc2ccc(C(N)C#N)cc2)cc1 (centres undefined)")
"Not fulfilled"
>>> label("COc1ccc(/C=C/C(=O)c2ccc(F)cc2)cc1")
"Not fulfilled"
>>> label("COc1ccc(C(=O)CCN(C)C)cc1")
"Fulfilled"
>>> label("Cc1ccc(C(=O)OC(C)C)cc1N=NN(C)C")
"Fulfilled"

Record CC1(C)C(CC(=O)O)CCCC1CC(=O)O (centres undefined) ; criterion: growth inhibition no lower than 10%. Met?
Fulfilled
